assay: clinical; conditions: human, in vivo, Tmax
metric_name: Tmax

- smiles_code: "COC[C@@]1(O)CC[C@@]2(C)[C@@H](CC[C@@H]3[C@@H]2CC[C@]2(C)[C@@H](C(=O)Cn4ccnc4)CC[C@@H]32)C1"
  metric_name: "Tmax"
  measured: "≤ 2 h"

---

experiment: clinical; conditions: human, in vivo, po, 60 mg, AUCss
metric_name: AUC (ng·h/mL)

- compound: "COC[C@@]1(O)CC[C@@]2(C)[C@@H](CC[C@@H]3[C@@H]2CC[C@]2(C)[C@@H](C(=O)Cn4ccnc4)CC[C@@H]32)C1 [Compound 1]"
  metric_name: "AUC"
  readout_units: "ng·h/mL"
  measured: 2080

---

assay: clinical; details: human, in vivo, po, 15 mg, AUC0-tau

- compound: "COC[C@@]1(O)CC[C@@]2(C)[C@@H](CC[C@@H]3[C@@H]2CC[C@]2(C)[C@@H](C(=O)Cn4ccnc4)CC[C@@H]32)C1 [Compound 1]"
  readout_units: "ng·h/mL"
  AUC: 362

---

assay: Randomized, double-blind, placebo-controlled multiple escalating dose study, plasma PK of Compound 1 oral suspension (Cohorts 1-3); conditions: human, plasma, po, 30 mg, Vz/F, Cohort 2, 30.0 mg QD oral, Day 14, Geo Mean
metric_name: Vd/F (L)

- smiles_code: "COC[C@@]1(O)CC[C@@]2(C)[C@@H](CC[C@@H]3[C@@H]2CC[C@]2(C)[C@@H](C(=O)Cn4ccnc4)CC[C@@H]32)C1"
  metric_name: "Vd/F"
  readout_units: "L"
  measured: 551

---

test: clinical; conditions: human, in vivo, po, 15 mg, Tmax
metric_name: Tmax (h)

- smiles_code: "COC[C@@]1(O)CC[C@@]2(C)[C@@H](CC[C@@H]3[C@@H]2CC[C@]2(C)[C@@H](C(=O)Cn4ccnc4)CC[C@@H]32)C1"
  measured: 1.03

---

assay: clinical; settings: human, in vivo, po, 15 mg, AUCss
metric_name: AUC (µg·h/mL)

- smiles_code: "COC[C@@]1(O)CC[C@@]2(C)[C@@H](CC[C@@H]3[C@@H]2CC[C@]2(C)[C@@H](C(=O)Cn4ccnc4)CC[C@@H]32)C1"
  readout_units: "µg·h/mL"
  measured: 0.492

---

assay: Randomized, double-blind, placebo-controlled multiple escalating dose study, plasma PK of Compound 1 oral suspension (Cohorts 1-3); conditions: human, plasma, po, 15 mg, t1/2, Cohort 1, 15.0 mg QD oral, Day 14, Mean

- smiles_code: "COC[C@@]1(O)CC[C@@]2(C)[C@@H](CC[C@@H]3[C@@H]2CC[C@]2(C)[C@@H](C(=O)Cn4ccnc4)CC[C@@H]32)C1"
  readout_units: "h"
  half-life: 14.8

---

experiment: Randomized, double-blind, placebo-controlled multiple escalating dose study, plasma PK of Compound 1 oral suspension (Cohorts 1-3); settings: human, plasma, po, 60 mg, Vz/F, Cohort 3, 60.0 mg QD oral, Day 14, Geo Mean
metric_name: Vd/F (L)

- smiles_code: "COC[C@@]1(O)CC[C@@]2(C)[C@@H](CC[C@@H]3[C@@H]2CC[C@]2(C)[C@@H](C(=O)Cn4ccnc4)CC[C@@H]32)C1"
  measured: 533

---

experiment: clinical; conditions: human, in vivo, po, 30 mg, AUCinf

- molecule: "COC[C@@]1(O)CC[C@@]2(C)[C@@H](CC[C@@H]3[C@@H]2CC[C@]2(C)[C@@H](C(=O)Cn4ccnc4)CC[C@@H]32)C1 [Compound 1]"
  readout_units: "ng·h/mL"
  AUC(0-inf): 1230
